Values compiled from PubChem BioAssay (NCI).

Tested on: OVCAR-3 ovarian
PROCEDURE SUMMARY: NCI-60 one-dose screen, 48 h (100 = growth as untreated, 0 = no growth, -100 = all killed)
MEASUREMENT SETUP: 10 µM unless noted
This is part of a sample that, as a whole, favours compounds with a hit. Of some 83,000 tested, about 20% had one in any assay.
Use 90% as the dividing line for growth, with the line itself on the 1 side and lower values as 0.

COMPOUND: CC(C)[C@@H]1C=C2CC[C@H]3[C@](C)(CN)CCC[C@]3(C)[C@H]2CC1
CAT: 0
//
COMPOUND: COc1cc(C2CC(c3ccc(Cl)cc3)=NN2C(C)=O)ccc1Oc1ccnc2cc(Cl)ccc12 (stereo not drawn)
CAT: 0
//
COMPOUND: O=C(CSc1nnc(Cc2ccccc2Nc2c(Cl)cccc2Cl)n1-c1ccccc1)N1N=C(c2ccc3ccccc3c2)CC1c1ccc(Cl)cc1 (stereo not drawn)
CAT: 1
//
COMPOUND: Cc1cc(-c2ccc(N=Nc3c(S(=O)(=O)O)cc4cc(S(=O)(=O)O)cc(O)c4c3O)c(C)c2)ccc1N=Nc1c(S(=O)(=O)O)cc2cc(S(=O)(=O)O)cc(O)c2c1O
CAT: 1
//
COMPOUND: CCOC(=O)Cn1c(-c2nonc2NC(=O)c2ccccc2F)nc2ccccc21
CAT: 0
//
COMPOUND: O=P(O)(O)C(O)(Cc1cccnc1)P(=O)(O)O
CAT: 1
//
COMPOUND: CC(C)[C@@]12C[C@@H](OC(=O)[C@H]3CO3)[C@@](C)(O1)[C@@H]1CC[C@@H](C)[C@H]1[C@@H]2OC(=O)/C=C/c1ccccc1
CAT: 0
//
COMPOUND: CC(C)(C)[Si](C)(C)OC1[C@@H](O[Si](C)(C)C(C)(C)C)[C@@H](CNC(=O)NC(=O)NC(=O)CI)O[C@H]1n1cnc2c(NC(=O)Nc3ccccc3)ncnc21 (stereo partly drawn)
CAT: 0
//
COMPOUND: C/C(=N\Nc1ccc([N+](=O)[O-])cn1)c1ccc(N)cc1
CAT: 1
//
COMPOUND: COc1cc(/C=C/c2cc(/C=C/c3ccc(O)c(OC)c3)n(C(=O)c3ccccc3Br)n2)ccc1O
CAT: 0
//
COMPOUND: CS(=O)(=O)c1ccc(Cl)c([N+](=O)[O-])c1
CAT: 0
//
COMPOUND: O=C(CCl)Nc1cc(O)c2c(c1)C(=O)c1cccc(O)c1C2=O
CAT: 0
//
COMPOUND: N#Cc1ccc(-c2ccc(-c3cccs3)o2)cc1F
CAT: 0
//
COMPOUND: COc1cc(C2CC(c3ccccc3)=NN2C=O)ccc1Oc1ccnc2cc(Cl)ccc12 (stereo not drawn)
CAT: 0
//
COMPOUND: O=C(N/N=C\c1cc(Br)ccc1O)c1ccncc1
CAT: 0
//
COMPOUND: COc1ncnc2[nH]cc(CN3CCN(c4ccc(F)cc4)CC3)c12
CAT: 1
//
COMPOUND: CCNC(=O)c1ccc2c(c1)nc(-c1ccc(Cl)cc1)n2-c1cc(C(C)(C)C)[nH]n1
CAT: 0
//
COMPOUND: CCCCCCCCCCCCCCCCCC(=O)[O][Sn]([CH2]CCC)([CH2]CCC)[CH2]CCC
CAT: 0

* * *

Tested on: A549/ATCC NSCLC
PROCEDURE SUMMARY: NCI-60 one-dose screen, 48 h
MEASUREMENT SETUP: 10 µM unless noted
This is part of a sample that, as a whole, favours compounds with a hit. Of some 83,000 tested, about 20% had one in any assay. Calls of active or inactive are those of the source. Rule for the calls: active = growth percent below 10; inactive = the rest.
Outcomes: true (active), false (inactive)

MOLECULE: COc1ccc(-c2nc(SCCC(C)C)nc(Nc3ccc(C(=O)O)cc3)c2C#N)cc1
ASSAY TARGET: A549/ATCC NSCLC
CAT: false
//
MOLECULE: COC1(OC)C2(Cl)CCC1(Cl)C(Cl)=C2Cl
ASSAY TARGET: A549/ATCC NSCLC
CAT: false
//
MOLECULE: O=C(NCCN1CCCCC1)n1cc(-c2ccncc2)c(-c2ccc(Cl)c(O)c2)n1
ASSAY TARGET: A549/ATCC NSCLC
CAT: false
//
MOLECULE: C=C[C@H]1CCC/C=C/[C@@H]2C[C@H](O)C[C@H]2[C@H](O)/C=C/C(=O)O1
ASSAY TARGET: A549/ATCC NSCLC
CAT: true
//
MOLECULE: CC(SC(C)C(=O)N/N=C/c1cccc(Cl)c1)C(=O)N/N=C\c1cccc(Cl)c1 (stereo unspecified)
ASSAY TARGET: A549/ATCC NSCLC
CAT: false
//
MOLECULE: COc1cc(C2CC(c3ccc(C)cc3)=NN2C=O)ccc1Oc1ccnc2cc(Cl)ccc12 (stereo unspecified)
ASSAY TARGET: A549/ATCC NSCLC
CAT: false
//
MOLECULE: CC1CCCN(CCCCOc2ccc(-c3ccc(C#N)cc3)cc2)C1 (stereo unspecified)
ASSAY TARGET: A549/ATCC NSCLC
CAT: false
//
MOLECULE: C=C(C)[C@@H]1CC[C@]2(C(=O)NS(=O)(=O)c3ccccc3)CC[C@]3(C)[C@H](CC[C@@H]4[C@@]5(C)CC[C@H](OC(=O)NS(=O)(=O)c6ccccc6)C(C)(C)[C@@H]5CC[C@]43C)[C@@H]12
ASSAY TARGET: A549/ATCC NSCLC
CAT: false
//
MOLECULE: COc1ccc(/C=C/C(=O)CCC(=O)O)cc1OC
ASSAY TARGET: A549/ATCC NSCLC
CAT: false
//
MOLECULE: Cc1ccccc1Nc1n[nH]c(Cc2ccccc2)n1
ASSAY TARGET: A549/ATCC NSCLC
CAT: false
//
MOLECULE: CC1(C)CC(=O)c2cc3c(N)c(C(=O)Nc4ccc(Cl)cc4)sc3nc2C1
ASSAY TARGET: A549/ATCC NSCLC
CAT: false
//
MOLECULE: Cc1cc(O)ccc1Sc1ccccc1[N+](=O)[O-]
ASSAY TARGET: A549/ATCC NSCLC
CAT: false
//
MOLECULE: O=C(NCCN1CCCC1)n1cc(-c2ccncc2)c(-c2cc(O)cc(Cl)c2)n1
ASSAY TARGET: A549/ATCC NSCLC
CAT: false
//
MOLECULE: O=C(Nc1ccc(-n2ccc3c(NC(=O)c4ccccc4)nccc32)cc1)c1ccc(N2CCOCC2)c(C(F)(F)F)c1
ASSAY TARGET: A549/ATCC NSCLC
CAT: true
//
MOLECULE: CC(C)CCSc1nc(-c2ccc(F)cc2)c(C#N)c(N2CCCCC2)n1
ASSAY TARGET: A549/ATCC NSCLC
CAT: false
//
MOLECULE: COc1ccc(C2c3cccn3-c3ccccc3N2C(C)=O)cc1 (stereo unspecified)
ASSAY TARGET: A549/ATCC NSCLC
CAT: false
//
MOLECULE: COc1cc(C2C(C#N)=C(N)Oc3cc4c(cc32)OCO4)cc2c1OCO2 (stereo unspecified)
ASSAY TARGET: A549/ATCC NSCLC
CAT: false
//
MOLECULE: Cc1csc(N/N=C/c2ccncc2)n1
ASSAY TARGET: A549/ATCC NSCLC
CAT: false
//
MOLECULE: CC(C)c1nc2ccccc2n1CC(=O)N/N=C/c1cccc(O)c1
ASSAY TARGET: A549/ATCC NSCLC
CAT: false
//
MOLECULE: CCCCCCCCOC(=O)C(C)OC(=O)OCCOCCOC(=O)OC(C)C(=O)OCCCCCCCC (stereo unspecified)
ASSAY TARGET: A549/ATCC NSCLC
CAT: false
//
MOLECULE: COc1ccc2c(c1)N(Cc1ccc(Cl)cc1)CCC2N1CCCC1=O (stereo unspecified)
ASSAY TARGET: A549/ATCC NSCLC
CAT: false
